- Measurement Description: yeast display, Sf9 membrane polyspecificity reagent, FACS + sequencing; frameworks hold sequencing errors
Measured Endpoint: polyreactivity (PSR sort gate)

Answered examples (4):
INSERT INTO measurements (item_sequence, observed_measurement) VALUES
  ('QVQLVESGGGLVQAGGSLRLSCAASGSIFVTNAMGWYRQAPGKERELVAAISGGADSTYADSVKGRFTISRDNAKNTVYLQMNSLKPEDTAVYYCAAKVRGWHYYYCGQGTQVTVSS', 'low polyreactivity'),
  ('QVQLVESGGGLVQAGGSLRLSCAASGFTFISNAMGWYRQAPGKERELVAAISGRGGRTYYADSVKGRFTISRDNAKNTVYLQMNSLKPEDTAVYYCNAVFRKLHYDYWGQGTQVTVSS', 'high polyreactivity'),
  ('QVHLVESGGGLVQAGGSLRLSCAASGRTLYDYAMEWYRQAPAKERELVAGITSGDSTYYADSVKGRFTISRDNAKNTVYLQMNSLKPEDTAVYYCAADSDTFYYTGYDYDYWGQGTQVTVSS', 'low polyreactivity'),
  ('QVQLVESGGGLVQAGGSLRLSCAASGRIFLTYAMGWYRQAPGKERELVAAISTSGTRTYYADSVKGRFTISRDNAMNTVYLQMNSLKPEDTAVYYCAREKYNYRTYEYWGQGTQVTVSS', 'high polyreactivity');

Input "QVQLVESGGGLVQAGGSLRLSCSASGFIFSRYVMGWYRKAPGKEREFVAVISYRGGSTYYADSVKGRFTFSRDNAKNTVYLQMNSLKPEDTAVYYCNADTIPDGEDRYDYWGQGTQVTVSS" , output reported polyreactivity (PSR sort gate). low polyreactivity
